assay-details: Ex-vivo mouse plasma stability study of ^177Lu-labeled compounds
Type: in vitro ADME
measurement-conditions: 37° C., 24 h
metric-name: % Remaining 24 h

Asked: Give the measured % Remaining 24 h of O=C(O)CC[C@H](NC(=O)N[C@@H](CCCCNC(=O)[C@H](Cc1ccc2ccccc2c1)NC(=O)C1CCC(CNC(=O)CN2CCN(CC(=O)O)CCN(CC(=O)O)CCN(CC(=O)O)CC2)CC1)C(=O)O)C(=O)O (stereo partly shown) [Example C-1, reference compound] .
Given back: 100%

###

System: PC-3 PIP tumor-bearing mice
assay-details: Biodistribution study in SCID mice bearing PC3-PIP tumor
Assay type: in vivo, mouse
measurement-conditions: PC3 PIP tumor-bearing mice, 24 h
Procedure: Biodistribution Study in SCID Mice Bearing PC3-PIP Tumor Severe combined immunodeficient (ICR-SCID) mice from the Institute of Cancer Research (Taconic Farms, Germantown, NY) were utilized for these studies. […] The tissues and organs were weighed, counted in a PerkinElmer Wizard 3 automatic γ counter, and the percent injected dose (% ID) and % ID/g of each organ or tissue were calculated, as shown in Tables 5-24 and FIG. 1 and FIG. 2.
Measured T at 24 h (tumor uptake) values are reported for all entries that follow.
// print number alone

1) O=C(O)CC[C@H](NC(=O)N[C@@H](CCCCNC(=O)[C@H](Cc1ccc2ccccc2c1)NC(=O)C1CCC(CNC(=O)CN2CCN(CC(=O)O)CCN(CC(=O)O)CCN(CC(=O)O)CC2)CC1)C(=O)O)C(=O)O (some centres unmarked) [Example C-1, reference compound] :: 10.4

From here, focus on the item given below.
Asked: Field request: T at 24 h (tumor uptake) | item: O=C(O)CC[C@H](NC(=O)N[C@@H](CCCCNC(=O)[C@H](Cc1ccc2ccccc2c1)NC(=O)[C@H]1CC[C@H](CNC(=O)[C@H](CCCCNC(=O)CCC(=O)NCCSSCCNC(=O)CN2CCN(CC(=O)O)CCN(CC(=O)O)CCN(CC(=O)O)CC2)NC(=O)[C@H](CCC(=O)O)NC(=O)CCCc2ccc(I)cc2)CC1)C(=O)O)C(=O)O [Example I-4, 4pIBA-Glu-Lys(-SSL1-DOTA)-Trx-2NaI-eKuE]
Given back: 0.79
